procedure_summary: Anticancer human tumor 997537-175-T-J1-PDC patient-derived colon adenocarcinoma cell line growth inhibition [POLQ]
run_parameters: 997537-175-T-J1-PDC complex spheroid viability, combination with POLQ inhibitors; second compound 1 µM; first compound 0.0316 µM; stronger effect = lower value
Procedure: Multicellular complex tumor spheroid response to Polymerase (POL) inhibitors (novobiocin, ART-558, RP6685) in combination with a variety of drugs and investigational agents in selected tumor cell lines The POL inhibitors (novobiocin, ART-558, and RP6685) were evaluated both individually and in combination with standard of care and investigational anticancer small molecules within a complex spheroid model of solid tumors. . […]

molecule: Cn1ncnc1[C@H]1c2n[nH]c(=O)c3cc(F)cc(c23)N[C@@H]1c1ccc(F)cc1 + COC1C(OC(N)=O)C(O)C(Oc2ccc3c(O)c(NC(=O)c4ccc(O)c(CC=C(C)C)c4)c(=O)oc3c2C)OC1(C)C
viability, T/C: 104%
//
molecule: CNCc1ccc(-c2[nH]c3cc(F)cc4c3c2CCNC4=O)cc1 + Cc1cccc(N(C)C(=O)C2C(O)CCN2c2nc(C)cc(C(F)(F)F)c2C#N)c1
viability, T/C: 92.4%
//
molecule: CC1COCCN1c1cc(C2(S(C)(=N)=O)CC2)nc(-c2ccnc3[nH]ccc23)n1 (stereo not drawn) + COC1C(OC(N)=O)C(O)C(Oc2ccc3c(O)c(NC(=O)c4ccc(O)c(CC=C(C)C)c4)c(=O)oc3c2C)OC1(C)C
viability, T/C: 110%

* * *

procedure_summary: Anticancer human tumor 997537-175-T-J1-PDC cell line growth inhibition [POLQ];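 also: luminescence signal used as a surrogate for viable cells; spheroids exposed to drugs for seven days before readout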
run_parameters: 997537-175-T-J1-PDC complex spheroid viability, combination with POLQ inhibitors; second compound 10 µM; first compound 1 µM; stronger effect = lower value

molecule: COc1ccc([C@@H](O)c2cc(-c3ncnc4cc(N5CCOCC5)ccc34)c(F)cc2Cl)nn1 + Nc1ccc(C#CCN(C(=O)Cc2ncc(C(F)(F)F)cc2C(F)(F)F)c2ccc(F)cc2)nn1
viability, T/C, %: 95.8
//
molecule: CC1COCCN1c1cc(C2(O)CC3CCC(C2)O3)c2cnn(-c3ccn[nH]3)c2n1 (stereo not drawn) + Nc1ccc(C#CCN(C(=O)Cc2ncc(C(F)(F)F)cc2C(F)(F)F)c2ccc(F)cc2)nn1
viability, T/C, %: 52.2
//
molecule: O=c1[nH]cc(F)c(=O)[nH]1 + Cc1cccc(N(C)C(=O)C2C(O)CCN2c2nc(C)cc(C(F)(F)F)c2C#N)c1
viability, T/C, %: 95.1

* * *

Some compounds, each annotated with its measured viability, T/C.
procedure_summary: Anticancer human tumor 997537-175-T-J1-PDC cell line growth inhibition [POLQ];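 also: luminescence signal used as a surrogate for viable cells; spheroids exposed to drugs for seven days before readout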
run_parameters: 997537-175-T-J1-PDC complex spheroid viability, combination with POLQ inhibitors; second compound 1 µM; first compound 0.0316 µM; stronger effect = lower value

compound: COc1cc(C2c3cc4c(cc3C(OC3OC5COC(C)OC5C(O)C3O)C3COC(=O)C23)OCO4)cc(OC)c1O (centres undefined) + Nc1ccc(C#CCN(C(=O)Cc2ncc(C(F)(F)F)cc2C(F)(F)F)c2ccc(F)cc2)nn1
viability, T/C / %: 92.4
--
compound: COc1cc(C2c3cc4c(cc3C(OC3OC5COC(C)OC5C(O)C3O)C3COC(=O)C23)OCO4)cc(OC)c1O (centres undefined) + COC1C(OC(N)=O)C(O)C(Oc2ccc3c(O)c(NC(=O)c4ccc(O)c(CC=C(C)C)c4)c(=O)oc3c2C)OC1(C)C
viability, T/C / %: 93.5
--
compound: CC1COCCN1c1cc(C2(S(C)(=N)=O)CC2)nc(-c2ccnc3[nH]ccc23)n1 (centres undefined) + Nc1ccc(C#CCN(C(=O)Cc2ncc(C(F)(F)F)cc2C(F)(F)F)c2ccc(F)cc2)nn1
viability, T/C / %: 97.8
--
compound: CCc1cc2c(N3CCc4c(cc(Cn5ccnc5)cc4-c4cn(C)nc4C(F)(F)F)C3=O)ccnc2c(OC)n1 + Cc1cccc(N(C)C(=O)C2C(O)CCN2c2nc(C)cc(C(F)(F)F)c2C#N)c1
viability, T/C / %: 95.9
--
compound: C=CC(=O)N1CCN(c2nc(=O)n(-c3c(C)ccnc3C(C)C)c3nc(-c4c(O)cccc4F)c(F)cc23)C(C)C1 (centres undefined) + Nc1ccc(C#CCN(C(=O)Cc2ncc(C(F)(F)F)cc2C(F)(F)F)c2ccc(F)cc2)nn1
viability, T/C / %: 102
--
compound: CC1COCCN1c1cc(C2(O)CC3CCC(C2)O3)c2cnn(-c3ccn[nH]3)c2n1 (centres undefined) + Nc1ccc(C#CCN(C(=O)Cc2ncc(C(F)(F)F)cc2C(F)(F)F)c2ccc(F)cc2)nn1
viability, T/C / %: 97.3
--
compound: COc1cccc2c1C(=O)c1c(O)c3c(c(O)c1C2=O)CC(O)(C(=O)CO)CC3OC1CC(N)C(O)C(C)O1 (centres undefined) + Nc1ccc(C#CCN(C(=O)Cc2ncc(C(F)(F)F)cc2C(F)(F)F)c2ccc(F)cc2)nn1
viability, T/C / %: 94.1
--
compound: COc1cc2cc(C(=O)CCC(=O)O)sc2cc1OC + Cc1cccc(N(C)C(=O)C2C(O)CCN2c2nc(C)cc(C(F)(F)F)c2C#N)c1
viability, T/C / %: 108
--
compound: CC[C@@]1(O)C(=O)OCc2c1cc1n(c2=O)Cc2cc3c(CN(C)C)c(O)ccc3nc2-1 + Cc1cccc(N(C)C(=O)C2C(O)CCN2c2nc(C)cc(C(F)(F)F)c2C#N)c1
viability, T/C / %: 83.1

* * *

Some molecules, each annotated with its measured IC50.
procedure_summary: Anticancer human tumor 997537-175-T-J1-PDC cell line growth inhibition [POLQ];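 also: luminescence signal used as a surrogate for viable cells; spheroids exposed to drugs for seven days before readout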
run_parameters: 997537-175-T-J1-PDC complex spheroid viability, combination with POLQ inhibitors; compound alone; run of 11/27/2023
Procedure: Multicellular complex tumor spheroid response to Polymerase (POL) inhibitors (novobiocin, ART-558, RP6685) in combination with a variety of drugs and investigational agents in selected tumor cell lines The POL inhibitors (novobiocin, ART-558, and RP6685) were evaluated both individually and in combination with standard of care and investigational anticancer small molecules within a complex spheroid model of solid tumors. . […]

molecule: COC1C(OC(N)=O)C(O)C(Oc2ccc3c(O)c(NC(=O)c4ccc(O)c(CC=C(C)C)c4)c(=O)oc3c2C)OC1(C)C (configuration not stated)
IC50: > 10 µM

molecule: Cc1cccc(N(C)C(=O)C2C(O)CCN2c2nc(C)cc(C(F)(F)F)c2C#N)c1 (configuration not stated)
IC50: > 10 µM

* * *

Some compounds, each annotated with its measured viability, T/C.
procedure_summary: Anticancer human tumor 997537-175-T-J1-PDC cell line growth inhibition [POLQ];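 also: luminescence signal used as a surrogate for viable cells; spheroids exposed to drugs for seven days before readout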
run_parameters: 997537-175-T-J1-PDC complex spheroid viability, combination with POLQ inhibitors; second compound 1 µM; first compound 0.0316 µM; stronger effect = lower value
Protocol: Multicellular complex tumor spheroid response to Polymerase (POL) inhibitors (novobiocin, ART-558, RP6685) in combination with a variety of drugs and investigational agents in selected tumor cell lines The POL inhibitors (novobiocin, ART-558, and RP6685) were evaluated both individually and in combination with standard of care and investigational anticancer small molecules within a complex spheroid model of solid tumors. . […]

compound: O=C(Nc1ccc(O)c(NS(=O)(=O)c2ccc(F)cc2)c1)c1ccc(-c2ccccc2)cc1 + Cc1cccc(N(C)C(=O)C2C(O)CCN2c2nc(C)cc(C(F)(F)F)c2C#N)c1
unit_tag: %
viability, T/C: 93.7
//
compound: COc1cccc(OCCCN)c1-c1cc(Nc2cnc(C#N)cn2)n[nH]1 + Cc1cccc(N(C)C(=O)C2C(O)CCN2c2nc(C)cc(C(F)(F)F)c2C#N)c1
unit_tag: %
viability, T/C: 59.6
//
compound: CNCc1ccc(-c2[nH]c3cc(F)cc4c3c2CCNC4=O)cc1 + Nc1ccc(C#CCN(C(=O)Cc2ncc(C(F)(F)F)cc2C(F)(F)F)c2ccc(F)cc2)nn1
unit_tag: %
viability, T/C: 90
//
compound: CC(C)n1c(=O)n(C)c2cnc3cc(F)c(-c4ccc(OCCCN5CCCCC5)nc4)cc3c21 + Nc1ccc(C#CCN(C(=O)Cc2ncc(C(F)(F)F)cc2C(F)(F)F)c2ccc(F)cc2)nn1
unit_tag: %
viability, T/C: 105
//
compound: COc1ccc([C@@H](O)c2cc(-c3ncnc4cc(N5CCOCC5)ccc34)c(F)cc2Cl)nn1 + Cc1cccc(N(C)C(=O)C2C(O)CCN2c2nc(C)cc(C(F)(F)F)c2C#N)c1
unit_tag: %
viability, T/C: 98.5
//
compound: C#Cc1c(F)ccc2cc(O)cc(-c3ncc4c(N5CC6CCC(C5)N6)nc(OCC56CCCN5CC(F)C6)nc4c3F)c12 (stereo not given) + COC1C(OC(N)=O)C(O)C(Oc2ccc3c(O)c(NC(=O)c4ccc(O)c(CC=C(C)C)c4)c(=O)oc3c2C)OC1(C)C
unit_tag: %
viability, T/C: 107
//
compound: COc1ccc([C@@H](O)c2cc(-c3ncnc4cc(N5CCOCC5)ccc34)c(F)cc2Cl)nn1 + COC1C(OC(N)=O)C(O)C(Oc2ccc3c(O)c(NC(=O)c4ccc(O)c(CC=C(C)C)c4)c(=O)oc3c2C)OC1(C)C
unit_tag: %
viability, T/C: 98
//
compound: CCc1cc2c(N3CCc4c(cc(Cn5ccnc5)cc4-c4cn(C)nc4C(F)(F)F)C3=O)cc(C)nc2c(OC)n1 + COC1C(OC(N)=O)C(O)C(Oc2ccc3c(O)c(NC(=O)c4ccc(O)c(CC=C(C)C)c4)c(=O)oc3c2C)OC1(C)C
unit_tag: %
viability, T/C: 102
//
compound: COc1cccc(OCCCN)c1-c1cc(Nc2cnc(C#N)cn2)n[nH]1 + COC1C(OC(N)=O)C(O)C(Oc2ccc3c(O)c(NC(=O)c4ccc(O)c(CC=C(C)C)c4)c(=O)oc3c2C)OC1(C)C
unit_tag: %
viability, T/C: 52.2
//
compound: O=c1[nH]cc(F)c(=O)[nH]1 + COC1C(OC(N)=O)C(O)C(Oc2ccc3c(O)c(NC(=O)c4ccc(O)c(CC=C(C)C)c4)c(=O)oc3c2C)OC1(C)C
unit_tag: %
viability, T/C: 96.7
